The origin of these recorded values is ChEMBL document CHEMBL1131141.

System: MT4
Assay: Dose required to achieve 50% protection of MT-4 cells from HIV-1(IIIB) induced cytopathogenicity, determined by […] method.
Type: functional, cell-based
Settings: Homo sapiens
pEC50: −log10 of the molar value.
T means recorded pEC50 is 6 or above; F means it is below 6.

- Smiles str: "O=C1N(Cc2ccccc2)c2cscc2S(=O)(=O)N1CCc1ccccc1"
  Answer label: "F"
- Smiles str: "CCN1C(=O)N(Cc2ccccn2)S(=O)(=O)c2cscc21"
  Answer label: "F"
- Smiles str: "CN1C(=O)N(Cc2ccc(Cl)cc2)S(=O)(=O)c2cscc21"
  Answer label: "F"
- Smiles str: "O=C1N(Cc2ccccc2)c2sccc2S(=O)(=O)N1Cc1ccccc1"
  Answer label: "F"
- Smiles str: "N#CCN1C(=O)N(CCc2ccccc2)S(=O)(=O)c2cscc21"
  Answer label: "F"
- Smiles str: "N#CCN1C(=O)N(Cc2ccccc2)S(=O)(=O)c2ccsc21"
  Answer label: "F"
- Smiles str: "CCN1C(=O)N(Cc2c(Cl)cccc2Cl)S(=O)(=O)c2cscc21"
  Answer label: "F"
- Smiles str: "Cc1ccnc2c1NC(=O)c1cccnc1N2C1CC1"
  Answer label: "T"
- Smiles str: "N#CCN1C(=O)N(Cc2cccc(F)c2)S(=O)(=O)c2cscc21"
  Answer label: "T"
- Smiles str: "N#CCN1C(=O)N(Cc2cccc(Cl)c2)S(=O)(=O)c2cscc21"
  Answer label: "T"
- Smiles str: "O=C1N(Cc2ccccc2Cl)c2cscc2S(=O)(=O)N1Cc1ccccc1"
  Answer label: "T"
- Smiles str: "O=C1N(Cc2ccccc2)c2cscc2S(=O)(=O)N1Cc1ccccc1"
  Answer label: "F"
- Smiles str: "CCN1C(=O)N(CCc2ccccc2)S(=O)(=O)c2cscc21"
  Answer label: "F"
- Smiles str: "O=C1N(Cc2ccccc2)c2cc(Cl)sc2S(=O)(=O)N1Cc1ccccc1"
  Answer label: "F"
- Smiles str: "CN1C(=O)N(Cc2ccccc2)S(=O)(=O)c2cscc21"
  Answer label: "F"
- Smiles str: "CN1C(=O)N(Cc2ccccc2Cl)S(=O)(=O)c2cscc21"
  Answer label: "F"
- Smiles str: "CCN1C(=O)N(Cc2ccc(Cl)cc2)S(=O)(=O)c2cscc21"
  Answer label: "F"
- Smiles str: "CN1C(=O)N(Cc2c(Cl)cccc2Cl)S(=O)(=O)c2cscc21"
  Answer label: "F"
- Smiles str: "CCN1C(=O)N(Cc2ccccc2)S(=O)(=O)c2ccsc21"
  Answer label: "F"
- Smiles str: "N#CCN1C(=O)N(Cc2ccccc2)S(=O)(=O)c2sc(Cl)cc21"
  Answer label: "F"
- Smiles str: "C#CCN1C(=O)N(Cc2cccc(Cl)c2)S(=O)(=O)c2cscc21"
  Answer label: "T"
- Smiles str: "CN1C(=O)N(Cc2cccc(Cl)c2)S(=O)(=O)c2cscc21"
  Answer label: "F"
- Smiles str: "CN1C(=O)N(Cc2ccccc2)S(=O)(=O)c2nn(C)cc21"
  Answer label: "F"
- Smiles str: "N#CCN1C(=O)N(Cc2cc(F)cc(F)c2)S(=O)(=O)c2cscc21"
  Answer label: "T"
- Smiles str: "N#CCN1C(=O)N(Cc2cccc(Br)c2)S(=O)(=O)c2cscc21"
  Answer label: "T"
